Give measured RP-LC retention time for each item. Keep answers brief.
# assay: gradient 5% acetonitrile 3 min, to 50% in 2 min, to 85% in 15 min, held 3 min, 100 µL/min
# runConditions: column: Zorbax Extend-C18 2.1 x 50 mm; eluents: water / acetonitrile, 0.1% formic acid
Numbers only, in s.

Return reported RP-LC retention time values for all items listed beneath this line.
1. CCCN1C(=O)COc2ccc(-c3csc(NC(=O)C4CC4)n3)cc21
2. CSc1cccc(NC(=O)C2CCCN(c3ccc(=O)n(-c4cccc(Cl)c4)n3)C2)c1 (stereo not given)
3. COc1ccc(-c2nc3cnccn3c2Nc2ccc(C(C)C)cc2)cc1
4. CSc1cccc(NC(=O)N2CC=C(c3cn(C)c4ncccc34)CC2)c1
5. CCCS(=O)(=O)N1CC(=O)N(c2cccc(F)c2)C(C)(C(=O)NC2CCCCCC2)C1 (stereo not given)
6. C[C@@H]1CN(C(=O)c2ccco2)C[C@H]1c1nc(-c2ccccc2)no1
7. CSCc1noc(Cn2ccc3ccn(CCN(C)C)c3c2=O)n1
8. Cc1ccc2c(c1)C(=O)NC1(CCN(C(=O)c3ccccc3)CC1)N2C

Data returned:
1: 879; 2: 1010; 3: 1040; 4: 873; 5: 956; 6: 936; 7: 597; 8: 748
